experiment: Body weight change and side effects during 14 days of oral treatment in nude mice; assay type: in vivo, BALB/c nu/nu mice; settings: day 3, 20 mg/kg oral once a day
READOUT KIND: Body weight change (%)
The figure you give is taken to be in %; do not add the unit.

Solved cases below.
>  <CHEMICAL STRING>
C[N+]1(C)CCN(C(=O)CCCOc2ccc(C34CC5CC(CC(C5)C3)C4)cc2)CC1.[I-]

>  <Body weight change, %>
104.1

$$$$
>  <CHEMICAL STRING>
C[N+](C)(C)CCNC(=O)CCOc1ccc(C23CC4CC(CC(C4)C2)C3)cc1.[I-]

>  <Body weight change, %>
104.0

$$$$

(Q) Return the recorded Body weight change value; entry: `CN1CCN(C(=O)C(C)(C)Oc2ccc(C34CC5CC(CC(C5)C3)C4)cc2)CC1`
(A) 100.8

(Q) Return the recorded Body weight change value; entry: `CN1CCN(C(=O)CCOc2ccc(C34CC5CC(CC(C5)C3)C4)cc2)CC1`
(A) 102.2

(Q) Return the recorded Body weight change value; entry: `CN(C)CCNC(=O)C(C)(C)Oc1ccc(C23CC4CC(CC(C4)C2)C3)cc1`
(A) 103.5

(Q) Return the recorded Body weight change value; entry: `CN1CCN(C(=O)COc2ccc(C34CC5CC(CC(C5)C3)C4)cc2)CC1`
(A) 103.2

(Q) Return the recorded Body weight change value; entry: `Cc1cc(C23CC4CC(CC(C4)C2)C3)ccc1OCC(=O)N1CCOCC1`
(A) 103.4

(Q) Return the recorded Body weight change value; entry: `Cc1cc(C23CC4CC(CC(C4)C2)C3)ccc1OCC(=O)N1CC[N+](C)(C)CC1.[I-]`
(A) 104.1

Each recorded value in this set is attributed to patent US9789114B2.
